molecular target: human CXCR4 receptor (human, UniProt P61073 1-352); experiment: cell-based or functional assay
Sequence (P61073 whole entry): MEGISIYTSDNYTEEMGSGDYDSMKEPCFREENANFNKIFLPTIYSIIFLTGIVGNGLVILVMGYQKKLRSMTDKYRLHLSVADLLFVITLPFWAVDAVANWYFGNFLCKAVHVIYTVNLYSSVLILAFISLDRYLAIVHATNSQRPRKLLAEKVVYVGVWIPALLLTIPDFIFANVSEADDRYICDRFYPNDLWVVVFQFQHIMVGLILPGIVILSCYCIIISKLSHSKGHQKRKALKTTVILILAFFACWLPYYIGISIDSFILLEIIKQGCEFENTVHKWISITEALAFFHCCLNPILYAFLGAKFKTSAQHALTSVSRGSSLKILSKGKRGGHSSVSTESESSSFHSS
MEASUREMENT LABEL: inhibition of SDF-1-induced β-arrestin recruitment (BRET)

[[record]]
binder = "humanized antibody Hz515H7 VH1 D76N VL2.2 (antibody, human IgG1, kappa, V domains shown, human IgG1/kappa format; also called hz515H7VL2.2) VH: EVQLVESGGGLVQPGRSLRLSCTASGFTFTDNYMSWVRQAPGKGLEWVGFIRNKANGYTTEYAASVKGRFTISRDNSKSIAYLQMNSLKTEDTAVYYCARDVGSNYFDYWGQGTLVTVSS VL: DIVMTQSPDSLAVSLGERATMSCKSSQSLFNSRTRKNYLAWYQQKPGQPPKLLIYWASARDSGVPDRFTGSGSETYFTLTISRVQAEDVAVYYCMQSFNLRTFGQGTKVEIKR"
readout_value = "~82%"

[[record]]
binder = "humanized antibody Hz515H7 VH1 D76N VL2 (antibody, human IgG1, kappa, V domains shown, human IgG1/kappa format; Biotinylated in the IHC study; also called hz515H7VL2; hz515H7 VH D76N VL2) VH: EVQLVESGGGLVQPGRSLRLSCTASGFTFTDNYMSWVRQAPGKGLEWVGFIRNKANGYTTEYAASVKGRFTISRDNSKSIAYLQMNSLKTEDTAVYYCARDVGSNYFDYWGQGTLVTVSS VL: DIVMTQSPSSLAVSLGERATMSCKSSQSLFNSRTRKNYLAWYQQKPGQSPKLLIYWASARDSGVPARFTGSGSETYFTLTISRVQAEDLAVYYCMQSFNLRTFGQGTKVEIKR"
readout_value = "~94%"

[[record]]
binder = "anti-CXCR4 chimeric Mab c515H7 (antibody, human IgG1, kappa, V domains shown, also called chimeric 515H7; chimeric antibody) VH: EVNLVESGGGLVQPGGSLRLSCATSGFTFTDNYMSWVRQPPGKALEWLGFIRNKANGYTTDYSASVRGRFTISRDNSQSILYLQMNALRAEDSATYYCARDVGSNYFDYWGQGTTLTVSS VL: DIVMSQSPSSLAVSAGEKVTMSCKSSQSLFNSRTRKNYLAWYQQKPGQSPKLLIYWASARDSGVPARFTGSGSETYFTLTISRVQAEDLAVYYCMQSFNLRTFGQGTKVEIKR"
readout_value = "~93%"

